Catalogue of log10 EC50 readings, one per entry.
- System tested: HLA-Cw*0102 (Homo sapiens, UniProt P10321, A176E/A330V/A35S/A97T/C350S/D114A/D33F/L171W/L180R/L218V/M285V/M309V/M331V/P208H/Q277E/Q291P/R121W/R243W/R30K/S123C/S140Y/S297R/T329A/T363A/V272M/V319A)
- Test method notes: FACS-based MHC stabilisation assay (peptide binding, T2 cells)
- Experimental context: Table 4 HIV-1 peptides; T2 cells, peptide 200-0.04 µM, 16 h 37°C, mAb VP6G3, flow cytometry; read-out: pBL50 (exp) (converted)
No end group written: not given here.
Metric: log10 EC50 (log10 of the value in nM)

1) CAPAGFAIL
0.99
2) LLRWGFTTP
3.31
3) RVRQGYSPL
1.94
4) ELQAIYLAL [ELQAIYLAL]
3.10
5) LQILAIVAL [LQILAIVAL]
2.88
6) LTEEKIKAL [LTEEKIKAL]
3.72
7) IVTRIVELL
3.05
8) FQSSMTKIL
2.85

----------
- System tested: HLA-Cw*0102 (Homo sapiens, UniProt P10321, A176E/A330V/A35S/A97T/C350S/D114A/D33F/L171W/L180R/L218V/M285V/M309V/M331V/P208H/Q277E/Q291P/R121W/R243W/R30K/S123C/S140Y/S297R/T329A/T363A/V272M/V319A)
- Test method notes: FACS-based MHC stabilisation assay (peptide binding, T2 cells)
- Experimental context: pBL50(exp)
pEC50: −log10 of the molar value. No end group written: not given here.
Catalogue of pEC50 readings, one per entry.
Metric: pEC50

1) HNPGIATPV
6.18
2) NAPERIITL
8.50
3) NCPARIITL
6.94
4) LTSPDVGLL [L T S P D V G L L]
4.56
5) PLSPPKKKD [P L S P P K K K D]
5.00
6) AQPQTTTPL [A Q P Q T T T P L]
6.92
7) CAPREPHVV
6.42
8) NCPEGYTSL
7.14
9) SWPMQFDAL [SWPMQFDAL]
6.57
10) ILSPRSKES [I L S P R S K E S]
3.53
11) ILSPSKESV [I L S P S K E S V]
4.94
12) WAPHTDTSL
7.90

----------
- System tested: HLA-Cw*0102 (Homo sapiens, UniProt P10321, A176E/A330V/A35S/A97T/C350S/D114A/D33F/L171W/L180R/L218V/M285V/M309V/M331V/P208H/Q277E/Q291P/R121W/R243W/R30K/S123C/S140Y/S297R/T329A/T363A/V272M/V319A)
- Test method notes: FACS-based MHC stabilisation assay (peptide binding, T2 cells)
- Experimental context: pBL50(exp)
pEC50: −log10 of the molar value. No end group written: not given here.
Metric: pEC50

1. NCPEAIITL
6.71
2. HMPDVGCIL
6.75
3. EQPERYESV
6.88
4. VAPQLTFGL
7.79
5. LPETKFSEL [L P E T K F S E L]
5.20
6. ILSPRKESV [I L S P R K E S V]
4.76

----------
Catalogue of pEC50 readings, one per entry.
- System tested: HLA-Cw*0102 (Homo sapiens, UniProt P10321, A176E/A330V/A35S/A97T/C350S/D114A/D33F/L171W/L180R/L218V/M285V/M309V/M331V/P208H/Q277E/Q291P/R121W/R243W/R30K/S123C/S140Y/S297R/T329A/T363A/V272M/V319A)
- Test method notes: FACS-based MHC stabilisation assay (peptide binding, T2 cells)
pEC50: −log10 of the molar value. No end group written: not given here.
Metric: pEC50

1. ATSPIVPSL [A T S P I V P S L]
5.38
2. SLEECDSEL [S L E E C D S E L]
3.43

----------
- System tested: HLA-Cw*0102 (Homo sapiens, UniProt P10321, A176E/A330V/A35S/A97T/C350S/D114A/D33F/L171W/L180R/L218V/M285V/M309V/M331V/P208H/Q277E/Q291P/R121W/R243W/R30K/S123C/S140Y/S297R/T329A/T363A/V272M/V319A)
- Test method notes: FACS-based MHC stabilisation assay (peptide binding, T2 cells)
- Experimental context: pBL50(exp)
pEC50: −log10 of the molar value. No end group written: not given here.
Catalogue of pEC50 readings, one per entry.
Metric: pEC50

1) NCPERIITL
7.20
2) WRPDVNMQL
5.54
3) YAQPQTTTP [Y A Q P Q T T T P]
5.22
4) KSPLDIVNL
5.72

----------
Catalogue of EC50 readings, one per entry.
- System tested: HLA-Cw*0102 (Homo sapiens, UniProt P10321, A176E/A330V/A35S/A97T/C350S/D114A/D33F/L171W/L180R/L218V/M285V/M309V/M331V/P208H/Q277E/Q291P/R121W/R243W/R30K/S123C/S140Y/S297R/T329A/T363A/V272M/V319A)
- Test method notes: FACS-based MHC stabilisation assay (peptide binding, T2 cells)
No end group written: not given here.
Metric: EC50

1. FPISPIETV
> 1 mM
2. IVRMYSPTS
> 1 mM
3. LVSAGIRKV
> 1 mM
